system: cellular microtubules in A-10 cells; assay: Microtubule depolymerization, indirect immunofluorescence; assay type: cell-based; conditions: A-10 cells, 18 h; read-out: EC50 for MT depolymerization in A-10 cells
property-name: EC50 (nM)
Numeric only. Scale: nM

*Q* I have this compound here, COc1ccc(N(C)c2nc(C)nc3oc(C)cc23)cc1 [Compound 1, reference compound] , and I need its recorded EC50.
*A* 103

*Q* I have this compound here, COc1ccc2c(c1)CCCN2c1nc(C)nc2oc(C)cc12 [Compound 10] , and I need its recorded EC50.
*A* 21

*Q* I have this compound here, COc1ccc(/C=C\c2cc(OC)c(OC)c(OC)c2)cc1O [CA-4, combretastatin A-4, reference compound] , and I need its recorded EC50.
*A* 9.8

###

tested on: SKOV3 cells; assay: Antiproliferative SRB assay; format: cell-based; settings: Homo sapiens, SK-OV-3, 48 h, read-out: IC50 ± SD in SKOV3 cells
property-name: IC50 (nM)
Numeric only. Scale: nM

*Q* Hi! What's the reported IC50 for COc1ccc2c(c1)CCCN2c1nc(C)nc2oc(C)cc12 [Compound 10] on SKOV3 cells?
*A* 12.9

*Q* Hi! What's the reported IC50 for Cc1nc(N(C)c2ccc3occc3c2)c2cc(C)oc2n1 [Compound 7] on SKOV3 cells?
*A* 425

*Q* Hi! What's the reported IC50 for Cc1nc(N(C)c2ccc3c(c2)CCO3)c2cc(C)oc2n1 [Compound 6] on SKOV3 cells?
*A* 120

*Q* Hi! What's the reported IC50 for CC(=O)O[C@H]1C(=O)[C@@]2(C)[C@H]([C@H](OC(=O)c3ccccc3)[C@]3(O)C[C@H](OC(=O)[C@H](O)[C@@H](NC(=O)c4ccccc4)c4ccccc4)C(C)=C1C3(C)C)[C@]1(OC(C)=O)CO[C@@H]1C[C@@H]2O [Paclitaxel, reference compound] on SKOV3 cells?
*A* 6.3

###

target: EGFR (Homo sapiens (Human)); assay: EGFR kinase inhibition, phosphotyrosine ELISA cytoblot; format: cell-based; conditions: A431 cells
Sequence (P00533 25-1210): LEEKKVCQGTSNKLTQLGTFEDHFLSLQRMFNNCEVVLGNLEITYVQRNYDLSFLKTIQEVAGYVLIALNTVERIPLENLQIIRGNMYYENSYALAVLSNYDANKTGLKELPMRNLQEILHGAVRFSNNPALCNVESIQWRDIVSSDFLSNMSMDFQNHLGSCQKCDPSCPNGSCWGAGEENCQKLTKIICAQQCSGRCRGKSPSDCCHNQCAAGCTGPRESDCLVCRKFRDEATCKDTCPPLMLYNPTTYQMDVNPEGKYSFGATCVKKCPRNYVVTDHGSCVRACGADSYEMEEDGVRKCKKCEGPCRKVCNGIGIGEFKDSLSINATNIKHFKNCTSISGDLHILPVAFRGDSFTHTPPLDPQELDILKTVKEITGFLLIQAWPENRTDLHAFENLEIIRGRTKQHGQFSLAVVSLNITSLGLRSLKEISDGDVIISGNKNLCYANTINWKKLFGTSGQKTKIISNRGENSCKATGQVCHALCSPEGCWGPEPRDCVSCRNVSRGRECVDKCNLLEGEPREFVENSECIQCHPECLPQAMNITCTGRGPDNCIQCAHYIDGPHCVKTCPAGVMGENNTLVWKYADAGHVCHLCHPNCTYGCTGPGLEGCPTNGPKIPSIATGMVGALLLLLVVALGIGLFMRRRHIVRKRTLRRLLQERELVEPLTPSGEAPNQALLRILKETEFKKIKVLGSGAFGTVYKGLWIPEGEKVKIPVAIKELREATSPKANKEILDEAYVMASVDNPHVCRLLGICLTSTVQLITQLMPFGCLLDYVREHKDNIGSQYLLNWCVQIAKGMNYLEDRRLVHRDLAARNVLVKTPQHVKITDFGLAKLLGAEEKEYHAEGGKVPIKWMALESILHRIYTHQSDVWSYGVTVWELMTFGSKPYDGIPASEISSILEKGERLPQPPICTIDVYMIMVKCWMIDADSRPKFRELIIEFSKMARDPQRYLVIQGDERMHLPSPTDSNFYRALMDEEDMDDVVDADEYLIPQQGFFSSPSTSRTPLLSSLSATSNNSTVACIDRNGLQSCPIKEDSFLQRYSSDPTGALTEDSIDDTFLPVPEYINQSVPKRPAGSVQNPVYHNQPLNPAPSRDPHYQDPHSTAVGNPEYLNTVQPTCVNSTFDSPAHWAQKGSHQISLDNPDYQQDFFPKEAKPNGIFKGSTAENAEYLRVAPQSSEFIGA
Labelling: IC50 reported below 200 nM becomes T; at or above becomes F.

*Q* Given the entry Cc1nc(N(C)c2ccc3occc3c2)c2cc(C)oc2n1 , would its reported IC50 be below 200 nM?
*A* F

*Q* Given the entry Cc1nc(N(C)c2ccc3c(c2)CCO3)c2cc(C)oc2n1 , would its reported IC50 be below 200 nM?
*A* F

*Q* Given the entry COc1ccc2c(c1)CCCN2c1nc(C)nc2oc(C)cc12 , would its reported IC50 be below 200 nM?
*A* T

*Q* Given the entry Cc1nc(N(C)c2ccc3c(c2)OCO3)c2cc(C)oc2n1 , would its reported IC50 be below 200 nM?
*A* F

*Q* Given the entry COc1ccc2c(c1)CCN2c1nc(C)nc2oc(C)cc12 , would its reported IC50 be below 200 nM?
*A* T

*Q* Given the entry COc1ccc(N(C)c2nc(C)nc3oc(C)cc23)cc1OC , would its reported IC50 be below 200 nM?
*A* T

###

biological target: VEGFR-2 (Homo sapiens (Human)); assay: VEGFR-2 kinase inhibition, phosphotyrosine ELISA cytoblot; conditions: U251 cells, phosphotyrosine ELISA
Sequence (P35968 20-1356): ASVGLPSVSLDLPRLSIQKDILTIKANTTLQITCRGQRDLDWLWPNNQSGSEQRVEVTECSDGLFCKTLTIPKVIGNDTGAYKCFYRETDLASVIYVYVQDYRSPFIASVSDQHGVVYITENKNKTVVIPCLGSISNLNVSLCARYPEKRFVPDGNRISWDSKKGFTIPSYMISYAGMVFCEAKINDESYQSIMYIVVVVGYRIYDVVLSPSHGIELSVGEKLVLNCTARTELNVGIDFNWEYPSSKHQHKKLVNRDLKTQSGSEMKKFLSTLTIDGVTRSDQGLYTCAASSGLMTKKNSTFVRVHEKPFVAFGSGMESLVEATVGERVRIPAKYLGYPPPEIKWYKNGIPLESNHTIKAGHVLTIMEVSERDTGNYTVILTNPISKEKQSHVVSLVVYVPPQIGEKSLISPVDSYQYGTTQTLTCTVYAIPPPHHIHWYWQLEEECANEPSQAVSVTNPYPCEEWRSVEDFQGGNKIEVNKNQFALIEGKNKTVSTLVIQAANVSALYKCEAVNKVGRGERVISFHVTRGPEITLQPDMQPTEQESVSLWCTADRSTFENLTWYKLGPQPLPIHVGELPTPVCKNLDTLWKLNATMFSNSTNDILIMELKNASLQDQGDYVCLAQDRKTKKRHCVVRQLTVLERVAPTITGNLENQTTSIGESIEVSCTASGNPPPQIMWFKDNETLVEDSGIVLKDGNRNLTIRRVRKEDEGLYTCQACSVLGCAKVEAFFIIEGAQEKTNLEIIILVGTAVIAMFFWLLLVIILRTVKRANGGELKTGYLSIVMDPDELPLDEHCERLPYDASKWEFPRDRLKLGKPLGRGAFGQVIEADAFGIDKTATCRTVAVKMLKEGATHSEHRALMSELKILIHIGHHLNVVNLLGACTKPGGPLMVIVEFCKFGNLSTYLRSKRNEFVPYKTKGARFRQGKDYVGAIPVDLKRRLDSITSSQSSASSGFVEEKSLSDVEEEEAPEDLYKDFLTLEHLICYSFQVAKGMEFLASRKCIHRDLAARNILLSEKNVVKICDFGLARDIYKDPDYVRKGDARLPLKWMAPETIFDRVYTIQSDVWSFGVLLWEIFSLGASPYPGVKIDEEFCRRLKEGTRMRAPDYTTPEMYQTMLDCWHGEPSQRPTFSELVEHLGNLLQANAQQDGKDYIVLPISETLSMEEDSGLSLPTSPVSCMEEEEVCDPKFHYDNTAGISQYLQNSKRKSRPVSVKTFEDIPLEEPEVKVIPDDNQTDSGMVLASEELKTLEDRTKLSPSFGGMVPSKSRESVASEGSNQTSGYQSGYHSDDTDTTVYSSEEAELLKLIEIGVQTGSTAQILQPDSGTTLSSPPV
Labelling: IC50 reported below 20 nM becomes yes; at or above becomes no.

*Q* Given the entry COc1ccc2c(c1)CCN2c1nc(C)nc2oc(C)cc12 , would its reported IC50 be below 20 nM?
*A* no

*Q* Given the entry COc1ccc(N(C)c2nc(C)nc3oc(C)cc23)cc1OC , would its reported IC50 be below 20 nM?
*A* yes

*Q* Given the entry COc1ccc2c(c1)CCCN2c1nc(C)nc2oc(C)cc12 , would its reported IC50 be below 20 nM?
*A* no

*Q* Given the entry Cc1nc(N(C)c2ccc3c(c2)CCO3)c2cc(C)oc2n1 , would its reported IC50 be below 20 nM?
*A* yes

*Q* Given the entry Cc1nc(N(C)c2ccc3occc3c2)c2cc(C)oc2n1 , would its reported IC50 be below 20 nM?
*A* yes
